experiment summary: Preliminary pharmacokinetic parameters (p.o. and i.v.)
Assay type: in vivo
protocol conditions: plasma; iv, 1.0 mg/kg; read-out: MRTINF_obs
value kind: MRT inf (h)
Numbers only here, please. The scale is h.

Qu. For the molecule shown here, Cc1coc2c1C(=O)c1c3c-2ccc2c3c(n1Cc1ccccc1)C(=O)CC2(C)C [Compound 15a] , give the reported MRT inf.
Ans. 2.98

* * *

half-life at 0.1 μM: recorded values
experiment summary: Liver microsomal stability assay, human
Assay type: in vitro ADME
protocol conditions: pH 7.4; human liver microsomes
Answer in min, number only, no unit symbol.

INSERT INTO results (compound, value_kind, recorded_result) VALUES
  ('Cc1coc2c1C(=O)c1c3c-2ccc2c3c(n1Cc1ccccc1)C(=O)CC2(C)C [Compound 15a]', 'half-life at 0.1 μM', 34.1);

Now, please, on to the next compound.
Qu. So what does the record say about half-life at 0.1 μM for Cc1coc2c1C(=O)C(=O)c1c-2ccc2c1CCCC2(C)C [Compound 2, tanshinone IIA, reference compound] ?
Ans. 7.58

* * *

experiment summary: Preliminary pharmacokinetic parameters (p.o. and i.v.)
Type: in vivo
protocol conditions: plasma; po, 3.0 mg/kg
value kind: AUC (ng·h/mL)
Lab book: enter the figure in ng·h/mL, no units written.

Qu. // lookup AUC for Cc1coc2c1C(=O)c1c3c-2ccc2c3c(n1Cc1ccccc1)C(=O)CC2(C)C [Compound 15a]
Ans. 426

* * *

experiment summary: Preliminary pharmacokinetic parameters (p.o. and i.v.)
Assay type: in vivo
protocol conditions: plasma; po, 3.0 mg/kg; read-out: MRTINF_obs
value kind: MRT inf (h)
Field: numeric (h). Do not append units.

Qu. Request the reported MRT inf associated with Cc1coc2c1C(=O)c1c3c-2ccc2c3c(n1Cc1ccccc1)C(=O)CC2(C)C [Compound 15a]
Ans. 5.33

* * *

experiment summary: Preliminary pharmacokinetic parameters (p.o. and i.v.)
Type: in vivo
protocol conditions: plasma; iv, 1.0 mg/kg
value kind: half-life (min)
Give the number; min is assumed, so skip it.

Qu. Param item = Cc1coc2c1C(=O)c1c3c-2ccc2c3c(n1Cc1ccccc1)C(=O)CC2(C)C [Compound 15a] ; retrieve measured half-life.
Ans. 300

* * *

experiment summary: Preliminary pharmacokinetic parameters (p.o. and i.v.)
Assay type: in vivo
protocol conditions: plasma; po, 3.0 mg/kg
value kind: Cmax (ng/mL)
Report the value in ng/mL with no unit label.

Qu. So what does the record say about Cmax for Cc1coc2c1C(=O)c1c3c-2ccc2c3c(n1Cc1ccccc1)C(=O)CC2(C)C [Compound 15a] ?
Ans. 81.2

* * *

target or test system: hERG potassium ion channel (Homo sapiens)
Sequence (Q12809 whole entry): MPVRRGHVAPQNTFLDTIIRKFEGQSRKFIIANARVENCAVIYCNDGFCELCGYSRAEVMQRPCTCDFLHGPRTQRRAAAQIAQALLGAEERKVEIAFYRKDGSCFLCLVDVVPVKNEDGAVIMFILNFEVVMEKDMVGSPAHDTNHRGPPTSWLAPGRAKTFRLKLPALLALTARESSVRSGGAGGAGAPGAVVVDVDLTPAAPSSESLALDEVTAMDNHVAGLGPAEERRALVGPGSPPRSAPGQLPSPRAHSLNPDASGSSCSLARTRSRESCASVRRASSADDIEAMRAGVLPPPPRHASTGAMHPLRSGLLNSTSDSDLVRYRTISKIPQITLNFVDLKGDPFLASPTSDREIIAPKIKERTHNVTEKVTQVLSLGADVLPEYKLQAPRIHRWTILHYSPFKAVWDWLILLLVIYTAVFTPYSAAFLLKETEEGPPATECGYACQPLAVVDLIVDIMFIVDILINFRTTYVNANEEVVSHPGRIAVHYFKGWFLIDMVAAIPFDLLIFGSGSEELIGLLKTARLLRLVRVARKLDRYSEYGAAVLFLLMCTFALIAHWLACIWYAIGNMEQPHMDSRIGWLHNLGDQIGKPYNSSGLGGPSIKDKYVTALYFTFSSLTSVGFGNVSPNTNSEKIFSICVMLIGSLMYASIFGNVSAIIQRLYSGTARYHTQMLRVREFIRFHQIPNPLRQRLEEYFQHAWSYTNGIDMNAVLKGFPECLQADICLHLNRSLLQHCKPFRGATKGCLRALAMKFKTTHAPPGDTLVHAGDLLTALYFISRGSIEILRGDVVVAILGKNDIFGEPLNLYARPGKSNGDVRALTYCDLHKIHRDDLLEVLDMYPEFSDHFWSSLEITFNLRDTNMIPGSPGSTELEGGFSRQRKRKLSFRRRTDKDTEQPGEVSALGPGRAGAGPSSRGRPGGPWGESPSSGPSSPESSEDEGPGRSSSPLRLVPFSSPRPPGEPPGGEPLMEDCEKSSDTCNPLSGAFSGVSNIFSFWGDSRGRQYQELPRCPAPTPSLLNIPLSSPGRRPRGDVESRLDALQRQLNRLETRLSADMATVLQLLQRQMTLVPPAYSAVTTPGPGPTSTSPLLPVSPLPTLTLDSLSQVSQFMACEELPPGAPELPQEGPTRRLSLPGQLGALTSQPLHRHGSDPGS
experiment summary: hERG cardiotoxicity assay (manual patch clamp, HEK293)
protocol conditions: whole-cell patch clamp, read-out: hERG inhibition IC50
value kind: IC50

Qu. Any idea what IC50 was measured for Cc1coc2c1C(=O)c1c3c-2ccc2c3c(n1Cc1ccccc1)C(=O)CC2(C)C [Compound 15a] ?
Ans. > 40 µM

* * *

The entries below are paired with their reported half-life at 0.1 μM.
experiment summary: Liver microsomal stability assay, rat
Format: in vitro ADME
protocol conditions: pH 7.4; rat liver microsomes
Provide only the numeric value, understood in min.

INSERT INTO results (compound, uom, recorded_result) VALUES
  ('Cc1coc2c1C(=O)C(=O)c1c-2ccc2c1CCCC2(C)C [Compound 2, tanshinone IIA, reference compound]', 'min', 3.15);

Note: attention shifts to another entry.
Qu. So what does the record say about half-life at 0.1 μM for Cc1coc2c1C(=O)c1c3c-2ccc2c3c(n1Cc1ccccc1)C(=O)CC2(C)C [Compound 15a] ?
Ans. 23.5
